Assay read-out Ki; system under study: Kappa-type opioid receptor (Homo sapiens).
Sequence (P41145 whole entry): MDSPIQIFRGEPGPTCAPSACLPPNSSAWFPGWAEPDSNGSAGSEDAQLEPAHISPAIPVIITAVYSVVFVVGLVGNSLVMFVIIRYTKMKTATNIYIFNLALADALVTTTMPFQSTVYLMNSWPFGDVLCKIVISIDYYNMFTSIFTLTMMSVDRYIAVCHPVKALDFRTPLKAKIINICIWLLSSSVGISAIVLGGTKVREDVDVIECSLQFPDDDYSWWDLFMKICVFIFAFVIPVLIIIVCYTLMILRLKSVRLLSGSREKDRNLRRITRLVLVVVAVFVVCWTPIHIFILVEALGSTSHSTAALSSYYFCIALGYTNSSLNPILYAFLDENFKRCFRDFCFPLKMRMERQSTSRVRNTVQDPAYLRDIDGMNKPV
QUANTITY KIND: Ki (nM)

1) CCCN(CCc1ccccc1)CCc1cccc(O)c1 = 8.13
2) CCCCN(CCc1ccccc1)CCc1cccc(O)c1 = 10.9

* * *

biological target: UniProt:P35372
Sequence (P35372 whole entry): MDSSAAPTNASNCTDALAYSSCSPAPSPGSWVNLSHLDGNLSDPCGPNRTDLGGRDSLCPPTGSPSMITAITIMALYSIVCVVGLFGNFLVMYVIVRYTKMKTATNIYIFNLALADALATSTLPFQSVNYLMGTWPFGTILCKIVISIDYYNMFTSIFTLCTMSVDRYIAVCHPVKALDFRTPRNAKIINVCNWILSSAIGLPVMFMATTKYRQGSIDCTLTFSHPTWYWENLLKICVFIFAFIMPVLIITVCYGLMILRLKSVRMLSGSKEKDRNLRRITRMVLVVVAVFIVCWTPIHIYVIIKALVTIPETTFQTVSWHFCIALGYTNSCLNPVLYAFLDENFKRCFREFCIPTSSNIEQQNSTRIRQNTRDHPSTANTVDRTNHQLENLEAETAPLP
pKi: −log10 of the molar value.
QUANTITY KIND: pKi

1. CCCN(CCc1ccccc1)CCc1cccc(O)c1 = 6.23

* * *

Observed log10(Ki) values for D(3) dopamine receptor (Homo sapiens) are listed in what follows.
QUANTITY KIND: log10(Ki) (log10 of the value in nM)

1) CCCCN(CCc1ccccc1)CCc1cccc(O)c1 = 3.06
2) CCCCCCN(CCc1ccccc1)CCc1cccc(O)c1 = 3.06
3) CCCCCN(CCc1ccccc1)CCc1cccc(O)c1 = 3.04
4) Oc1cccc(CCN(CCc2ccccc2)CC2CC2)c1 = 2.23
5) Oc1cccc(CCN(CCc2ccccc2)CC2CCC2)c1 = 2.45
6) CCCN(CCc1ccccc1)CCc1cccc(O)c1 = 1.34

* * *

Recorded Ki, one value per entry.
biological target: Delta-type opioid receptor (Homo sapiens); test: Displacement of [3H]pCl-DPDPE from human delta opioid receptor expressed in CHO cell membranes incubated for 60 mins by liquid scintillation counting
Sequence (P41143 whole entry): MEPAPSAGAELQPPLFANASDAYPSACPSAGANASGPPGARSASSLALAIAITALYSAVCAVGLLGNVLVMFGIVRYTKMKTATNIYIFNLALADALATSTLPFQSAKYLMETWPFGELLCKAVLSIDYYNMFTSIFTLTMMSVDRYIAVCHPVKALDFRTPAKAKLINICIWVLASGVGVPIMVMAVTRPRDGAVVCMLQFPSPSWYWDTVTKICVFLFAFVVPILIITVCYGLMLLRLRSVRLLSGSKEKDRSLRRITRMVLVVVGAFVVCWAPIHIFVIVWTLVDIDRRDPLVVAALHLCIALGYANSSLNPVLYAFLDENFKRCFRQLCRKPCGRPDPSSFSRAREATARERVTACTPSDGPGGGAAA
QUANTITY KIND: Ki (µM)

1. CCCCCN(CCc1ccccc1)CCc1cccc(O)c1 = 1.32
2. CCCCCCN(CCc1ccccc1)CCc1cccc(O)c1 = 3.57
3. CCCCN(CCc1ccccc1)CCc1cccc(O)c1 = 2.43
4. CCCN(CCc1ccccc1)CCc1cccc(O)c1 = 3.71

* * *

target: Kappa-type opioid receptor (Cavia porcellus, UniProt P41144)
Sequence (P41144 whole entry): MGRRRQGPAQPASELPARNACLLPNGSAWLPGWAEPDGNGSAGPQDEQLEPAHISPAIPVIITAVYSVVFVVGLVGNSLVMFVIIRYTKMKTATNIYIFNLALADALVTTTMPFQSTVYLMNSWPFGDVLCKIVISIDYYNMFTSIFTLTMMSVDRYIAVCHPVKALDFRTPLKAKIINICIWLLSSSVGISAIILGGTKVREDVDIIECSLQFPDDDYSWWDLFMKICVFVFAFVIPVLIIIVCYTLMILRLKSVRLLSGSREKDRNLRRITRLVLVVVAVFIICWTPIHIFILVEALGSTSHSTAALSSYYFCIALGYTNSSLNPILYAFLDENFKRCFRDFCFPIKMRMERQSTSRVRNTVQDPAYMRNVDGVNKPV
QUANTITY KIND: IC50 (µM)

1) CCCN(CCc1ccccc1)CCc1cccc(O)c1 = 0.057

* * *

target: UniProtKB P14416; assay: biochemical; format: cell-based, CHOp
Sequence (P14416 whole entry): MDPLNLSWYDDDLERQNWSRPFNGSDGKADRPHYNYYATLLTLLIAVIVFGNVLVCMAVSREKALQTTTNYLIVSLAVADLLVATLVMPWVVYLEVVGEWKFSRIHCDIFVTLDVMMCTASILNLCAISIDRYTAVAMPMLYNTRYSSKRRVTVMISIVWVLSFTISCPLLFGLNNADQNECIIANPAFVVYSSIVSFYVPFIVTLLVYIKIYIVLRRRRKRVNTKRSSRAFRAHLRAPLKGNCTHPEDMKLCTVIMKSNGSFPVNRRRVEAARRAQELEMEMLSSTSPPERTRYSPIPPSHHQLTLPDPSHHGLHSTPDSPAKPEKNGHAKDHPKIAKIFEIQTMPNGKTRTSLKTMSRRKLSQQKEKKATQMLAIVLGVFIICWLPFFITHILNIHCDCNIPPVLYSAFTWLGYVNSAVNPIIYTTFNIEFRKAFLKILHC
pKi: −log10 of the molar value.
QUANTITY KIND: pKi

1. CCCN(CCc1ccccc1)CCc1cccc(O)c1 = 7.19
2. Oc1cccc(CCN(CCc2ccccc2)CC2CC2)c1 = 6.93
3. Oc1cccc(CCN(CCc2ccccc2)CC2CCC2)c1 = 6.35

Recorded values, source ChEMBL document CHEMBL2177058.
